System: CP262
measurementDescription: qHTS profiling for inhibitors of Plasmodium falciparum proliferation (AID 504749); further: nearly all actives have a fitted effect of over 60% in size
measurementParameters: P. falciparum in erythrocytes, SYBR Green DNA, 72 h; series mostly up to 28.7 µM
Protocol: NIH National Institute of Allergy and Infectious Diseases [NIAID] NIH Chemical Genomics Center [NCGC] […] Because mature erythrocytes lack DNA, only Plasmodium-derived DNA is detected. NCGC Assay Protocol Summary: The SYBR Green viability assay was adapted from a method described previously (Plouffe et al., 2008). […] The following morning, fluorescence intensity at 485(14) nm excitation and 535(25) nm emission wavelengths was measured on an EnVision (Perkin Elmer) plate reader. […]
Results filed as inconclusive are left out. Active and inactive are the calls of the source. The call rests on the fitted dose curve; in most records, active means well fitted inhibition curve with a large enough effect; inconclusive means small, poorly fitted or top-dose-only effect; inactive means flat fitted curve, though single readings scatter.
The categories you may choose from are TRUE for active, FALSE for inactive

{"compound": "O=c1[nH]c(=O)n(Cl)c(=O)n1Cl", "cat": "FALSE"}
{"compound": "O=Cc1ccco1", "cat": "FALSE"}
{"compound": "CCCC(=O)OC(C(Cl)(Cl)Cl)P(=O)(OC)OC (stereo not drawn)", "cat": "FALSE"}
{"compound": "CNC(=O)OCC[N+](C)(C)C", "cat": "FALSE"}
{"compound": "CN1C2CCC1CC(OC(c1ccccc1)c1ccc(Cl)cc1)C2 (stereo not drawn)", "cat": "TRUE"}
{"compound": "CC(C)Nc1ccc(Nc2ccccc2)cc1", "cat": "TRUE"}
{"compound": "[Cl-].[Cl-].[Hg+2]", "cat": "FALSE"}

Alright, here's another compound for you.
Req: What outcome does the record of this test show for N#CN ?
Resp: FALSE
